Cited source for all entries: paper PMC7615311

# System: AKT1S1
# METHOD SUMMARY: decryptM, pT246 on AKT1S1 in SK-BR-3 cells
# Format: cell-based
# DETAILS: Homo sapiens, SK-BR-3, read-out: potency of inhibition of pT246 on AKT1S1
ATTRIBUTE MEASURED: pEC50
// pEC50: -log10(molar conc.)

Exam item: Hello, please tell me recorded pEC50 for this one: CS(=O)(=O)CCNCc1ccc(-c2ccc3ncnc(Nc4ccc(OCc5cccc(F)c5)c(Cl)c4)c3c2)o1 [Lapatinib]
Marked response: 7.96
